Test system: Pseudomonas aeruginosa CNCM A22
Assay: Minimum bactericidal concentration, 30 min contact, strain 3
Format: cell-based
Conditions: CNCMA22, 0.5 h; Pseudomonas aeruginosa CNCM A22; contact time 30 minutes; solubilizing agent given per product; read-out: MBC, strain 3
measurement.name: MBC (µg/mL)

CC1CCN(CC(O)COc2ccc(Br)cc2)CC1.Cl (stereo not shown) [Product A, reference compound]: 1000
OC(CSc1ccc(Cl)c(Cl)c1)CN1CCC(Cc2ccc(Cl)cc2)CC1 (racemic): 50
OC(COc1cc(Cl)ccc1Oc1ccc(Cl)cc1Cl)CN1CCC(Cc2ccccc2)CC1 (racemic): 10
OC(COc1ccc(Cl)c(Cl)c1)CN1CCC(Cc2ccc(Cl)cc2)CC1 (racemic): 50

====

# MBC listing for each entry below
Test system: Staphylococcus aureus CNCM 53154
Test: Minimum bactericidal concentration, 30 min contact, strain 1
Format: cell-based
Settings: CNCM53154, 0.5 h; Staphylococcus aureus CNCM 53154; contact time 30 minutes; solubilizing agent (water, TEG or acetone) given per product; read-out: MBC, strain 1
Experimental: A bacterial inoculum is brought into contact with different dilutions of the test product for a limited time of 30 minutes. […] After 24 hours of culture at 37° C., the microbial growth is harvested with the aid of glass beads and 10 ml of diluent containing 1 g of tryptone and 8.5 g of sodium chloride in 1000 ml of distilled water. The suspension formed is shaken and the percentage transmission of light at 620 nm is measured on a spectrophotometer: […]
measurement.name: MBC (µg/mL)

OC(CSc1ccc(Cl)c(Cl)c1)CN1CCC(Cc2ccccc2)CC1 (racemic): 1000
Cl.OC(CSc1ccc(Br)cc1)CN1CCC(Cc2ccccc2)CC1 (centres unmarked): 50
CC(C)(C)c1ccc(OCC(O)CN2CCC(Cc3ccccc3)CC2)cc1 (racemic): 200
OC(COc1ccc(Cl)cc1Cl)CN1CCC(Cc2ccccc2)CC1 (racemic): 50
OC(COc1cccc2ccccc12)CN1CCC(Cc2ccc(Cl)cc2)CC1 (racemic): 50
OC(COc1ccc(Cl)c(Cl)c1)CN1CCC(Cc2ccc(Cl)cc2)CC1 (racemic): 10
OC(COc1cc(Br)c2ccccc2c1)CN1CCC(Cc2ccccc2)CC1 (racemic): 10
OC(COc1ccc(-c2ccccc2)cc1)CN1CCC(Cc2ccccc2)CC1 (racemic): 50
OC(COc1ccc(Cl)cc1)CN1CCC(Cc2ccccc2)CC1 (racemic): 500
Cl.OC(COc1ccc(Cl)cc1Cc1ccccc1)CN1CCC(Cc2ccccc2)CC1 (centres unmarked): 10
OC(COc1ccc(F)cc1F)CN1CCC(Cc2ccccc2)CC1 (racemic): 1000
OC(CSc1ccc(Cl)c(Cl)c1)CN1CCC(Cc2ccc(Cl)cc2)CC1 (racemic): 50
OC(COc1ccc2ccccc2c1)CN1CCC(Cc2ccccc2)CC1 (racemic): 1000

====

Test system: Staphylococcus aureus CNCM 53154
Assay: Minimum bactericidal concentration, 30 min contact, strain 1
Type: cell-based
Details: CNCM53154, 0.5 h; Staphylococcus aureus CNCM 53154; contact time 30 minutes; solubilizing agent (water, TEG or acetone) given per product; read-out: MBC, strain 1
measurement.name: MBC (µg/mL)

OC(COc1cccc2ccccc12)CN1CCC(Cc2ccccc2)CC1 (racemic): 50
Cl.OC(COc1ccc(Cl)cc1Cl)CN1CCC(Cc2ccccc2)CC1 (centres unmarked): 100
OC(COc1cc(Cl)c(Cl)cc1Cl)CN1CCC(Cc2ccccc2)CC1 (racemic): 10
OC(CSc1ccc(Br)cc1)CN1CCC(Cc2ccc(Cl)cc2)CC1 (racemic): 50
OC(COc1ccc(Br)cc1)CN1CCC(Cc2ccccc2)CC1 (racemic): 100
OC(COc1cc(Cl)ccc1Oc1ccc(Cl)cc1Cl)CN1CCC(Cc2ccccc2)CC1 (racemic): 50
OC(COc1ccccc1-c1ccccc1)CN1CCC(Cc2ccccc2)CC1 (racemic): 200
OC(COc1ccc(Cl)cc1Cc1ccccc1)CN1CCC(Cc2ccccc2)CC1 (racemic): 10
Cl.OC(COc1ccc2ccccc2c1Br)CN1CCC(Cc2ccccc2)CC1 (centres unmarked): 50

Sourced from patent US5036077A
